Test system: Pyk2
Assay: sICAM-2 induced Pyk2 phosphorylation (phospho-tyrosine based ELISA, chemical genetic approach)
Format: cell-based
Details: phospho-tyrosine based ELISA
Description: E) depicts that LFA-1, induced phosphorylation of Pyk2, and Syk is dependent on PKC. We screened for the inhibition of sICAM-2, induced Pyk2, and Syk phosphorylation by chemical inhibitors to tyrosine kinases using a phospho-tyrosine based ELISA. […]

{"molecule": "CN1CCCC1CCn1cc(C2=C(c3c[nH]c4ccccc34)C(=O)NC2=O)c2ccccc21 (stereo not shown) [bisindolymaleimide II]", "sICAM-2 induced Pyk2 phosphorylation": "abrogated"}
{"molecule": "CN[C@@H]1C[C@H]2O[C@@](C)([C@@H]1OC)n1c3ccccc3c3c4c(c5c6ccccc6n2c5c31)C(=O)NC4", "sICAM-2 induced Pyk2 phosphorylation": "abrogated"}
{"molecule": "CC(C)(C)c1cc(C=C(C#N)C#N)cc(C(C)(C)C)c1O", "sICAM-2 induced Pyk2 phosphorylation": "abrogated"}
